# key: entry, value: pIC50
System: 293T-HRE-GFP-luc cells
Method Summary: Cell-based reporter assay for IC50 determinations
Test Context: hypoxia 6 hrs (1% O2), luminescence, read-out: IC50 Classification
pIC50: −log10 of the molar value.

Look over these answered cases.
>  <Smiles Notation>
Cc1nc(-c2nc(-c3ccc(OC(F)(F)F)cc3)no2)nn1Cc1cccc(S(=O)(=O)NC2CC2)c1

>  <pIC50>
> 7.00

$$$$
>  <Smiles Notation>
FC(F)(F)Oc1ccc(-c2noc(-c3nc(C4CC4)n(Cc4ccccc4)n3)n2)cc1

>  <pIC50>
5.00 to 6.00

$$$$
>  <Smiles Notation>
Cc1nc(-c2nc(-c3ccc(OC(F)(F)F)cc3)no2)nn1Cc1cccc(C(F)(F)F)c1

>  <pIC50>
5.00 to 6.00

$$$$
>  <Smiles Notation>
COCCOc1cccc(Cn2nc(-c3ncc(-c4ccc(OC(F)(F)F)cc4)o3)nc2C)c1

>  <pIC50>
> 7.00

$$$$

Incoming: Quick one: pIC50 of Cc1nc(-c2nc(-c3ccc(OC(F)(F)F)cc3)no2)nn1Cc1cccc(N2CCCS2(=O)=O)c1 ?
Outgoing: > 7.00

Incoming: Return reported pIC50; argument: Cc1nc(-c2nc(-c3ccc(OC(F)(F)F)cc3)no2)nn1Cc1cccc(OCC(N)=O)c1
Outgoing: > 7.00

Incoming: Which pIC50 is listed for Cc1nc(-c2cc(-c3ccc(OC(F)(F)F)cc3)no2)nn1Cc1ccnc(N2CCC(S(C)(=O)=O)CC2)c1 ?
Outgoing: > 7.00
